- MEASURED_TARGET: CAMK1G (human)
- PROTOCOL_TEXT: radiometric filter-binding kinase assay, Kinase HotSpot
- CONDITION_LABEL: compound 0.5 µM; ATP 10 µM
OBSERVATION_TYPE: residual activity (%)
# unit: % | format: bare number

Example results:
c1ccc2c(-c3ccncc3)c[nH]c2c1 : 99
Cc1cncc2cccc(S(=O)(=O)N3CCCN(C(=O)CN)C[C@H]3C)c12 : 94.6
CN(C)S(=O)(=O)c1ccc2c(c1)/C(=C/c1cc3c([nH]1)CCCC3)C(=O)N2 : 97.1
COc1ccc(Cl)cc1NC(=O)Nc1cc(C)nc2ccccc12 : 102

Okay, next one:
Query :: Name the reported residual activity value associated with the molecule CS(=O)(=O)CCNCc1ccc(-c2ccc3ncnc(Nc4ccc(OCc5cccc(F)c5)c(Cl)c4)c3c2)o1
Result :: 102

====

residual activity values for the compounds below.
- MEASURED_TARGET: NUAK2 (human)
- PROTOCOL_TEXT: radiometric filter-binding kinase assay, Kinase HotSpot
- CONDITION_LABEL: compound 0.5 µM; ATP 10 µM
Answer with a number only, understood to be in %.

Worked cases, answers included:
C[C@@H]1CCN(C(=O)CC#N)C[C@@H]1N(C)c1ncnc2[nH]ccc12 : 80.3
Cc1cccc(-c2nc(C(C)(C)C)[nH]c2-c2ccc3c(c2)OCO3)n1 : 138

Query :: // query residual activity value for entry NC(=O)c1cccc(-c2cc(Nc3ccc(OC(F)(F)F)cc3)ncn2)c1
Result :: 87.8

Query :: What does the record list as residual activity for COc1cc2ncnc(Nc3ccc(Oc4ccccc4)cc3)c2cc1OC ?
Result :: 137

Query :: Which value of residual activity has been reported for COc1cc(Nc2c(C#N)cnc3cc(OCCCN4CCN(C)CC4)c(OC)cc23)c(Cl)cc1Cl in the records?
Result :: 59.5

Query :: Dear colleague, I am looking for the recorded residual activity of the following compound: O=C1Nc2ccc(Br)cc2/C1=C\c1cc2c([nH]1)CCCC2
Result :: 133

Query :: So what's the measured residual activity for this one? c1ccc2c(-c3ccncc3)c[nH]c2c1
Result :: 136

====

- MEASURED_TARGET: DAPK1 (human) (UniProt P53355)
- Sequence (P53355 whole entry, looked up): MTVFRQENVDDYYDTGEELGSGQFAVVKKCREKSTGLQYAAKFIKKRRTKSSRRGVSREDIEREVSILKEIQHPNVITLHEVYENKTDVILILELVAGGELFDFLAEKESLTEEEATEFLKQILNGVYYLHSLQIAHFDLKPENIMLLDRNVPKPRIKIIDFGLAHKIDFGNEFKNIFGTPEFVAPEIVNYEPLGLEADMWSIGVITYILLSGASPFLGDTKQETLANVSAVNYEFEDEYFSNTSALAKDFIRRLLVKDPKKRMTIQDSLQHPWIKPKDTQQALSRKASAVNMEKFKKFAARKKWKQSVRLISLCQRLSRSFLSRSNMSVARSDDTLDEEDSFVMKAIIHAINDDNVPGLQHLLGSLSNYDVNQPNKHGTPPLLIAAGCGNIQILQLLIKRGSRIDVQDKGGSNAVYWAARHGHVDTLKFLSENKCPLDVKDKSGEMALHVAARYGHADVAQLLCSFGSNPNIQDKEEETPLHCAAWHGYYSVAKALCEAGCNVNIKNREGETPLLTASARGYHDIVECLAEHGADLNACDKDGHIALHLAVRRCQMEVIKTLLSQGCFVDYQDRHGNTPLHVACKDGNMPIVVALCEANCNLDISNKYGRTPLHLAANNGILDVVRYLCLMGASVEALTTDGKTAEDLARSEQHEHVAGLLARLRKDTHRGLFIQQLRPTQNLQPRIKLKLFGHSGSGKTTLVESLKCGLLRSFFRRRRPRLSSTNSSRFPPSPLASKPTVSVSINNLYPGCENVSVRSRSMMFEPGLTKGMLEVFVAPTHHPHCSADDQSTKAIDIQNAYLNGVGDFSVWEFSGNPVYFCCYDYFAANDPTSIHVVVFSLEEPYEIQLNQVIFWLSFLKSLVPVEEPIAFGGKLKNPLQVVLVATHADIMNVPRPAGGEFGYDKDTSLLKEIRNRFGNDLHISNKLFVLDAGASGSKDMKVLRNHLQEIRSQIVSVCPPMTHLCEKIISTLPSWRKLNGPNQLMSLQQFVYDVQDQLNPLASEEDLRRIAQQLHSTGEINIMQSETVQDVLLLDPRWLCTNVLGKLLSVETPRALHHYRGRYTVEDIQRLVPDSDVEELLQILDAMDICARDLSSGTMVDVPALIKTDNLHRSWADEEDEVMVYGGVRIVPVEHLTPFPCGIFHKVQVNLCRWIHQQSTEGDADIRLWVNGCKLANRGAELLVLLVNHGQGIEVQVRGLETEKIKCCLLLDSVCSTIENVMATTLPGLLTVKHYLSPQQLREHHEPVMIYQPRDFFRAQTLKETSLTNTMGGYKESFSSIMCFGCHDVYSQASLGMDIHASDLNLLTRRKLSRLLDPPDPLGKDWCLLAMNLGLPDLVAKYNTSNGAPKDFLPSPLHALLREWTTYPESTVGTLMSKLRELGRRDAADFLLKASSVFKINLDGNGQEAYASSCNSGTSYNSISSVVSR
- PROTOCOL_TEXT: radiometric filter-binding kinase assay, Kinase HotSpot
- CONDITION_LABEL: compound 0.5 µM; ATP 10 µM
# reported residual activity; entries follow
Include the unit after the number when you answer.

COc1cc(Nc2c(C#N)cnc3cc(OCCCN4CCN(C)CC4)c(OC)cc23)c(Cl)cc1Cl : 106%

Below: the item to evaluate.
Query :: Consider the compound N#Cc1c[nH]c2c[nH]/c(=N\Cc3cccnc3)cc2/c1=N\c1ccc(F)c(Cl)c1 and give its measured residual activity.
Result :: 102%

====

- MEASURED_TARGET: MELK (human)
- PROTOCOL_TEXT: radiometric filter-binding kinase assay, Kinase HotSpot
- CONDITION_LABEL: compound 0.5 µM; ATP 10 µM
Readings of residual activity for the listed molecules
Write the number in % without appending the unit.

Study these solved cases before continuing.
Cc1cncc2cccc(S(=O)(=O)N3CCCN(C(=O)CN)C[C@H]3C)c12 : 83
NC(=O)c1cccc(-c2cc(Nc3ccc(OC(F)(F)F)cc3)ncn2)c1 : 94.5
CC(C)(C)c1cc(C=C(C#N)C#N)cc(Br)c1O : 91.6
CN(C)S(=O)(=O)c1ccc2c(c1)/C(=C/c1cc3c([nH]1)CCCC3)C(=O)N2 : 89.1

Query :: Please look up its residual activity: CS(=O)(=O)CCNCc1ccc(-c2ccc3ncnc(Nc4ccc(OCc5cccc(F)c5)c(Cl)c4)c3c2)o1
Result :: 88.5

Query :: Name the reported residual activity value associated with the molecule O=C1Nc2ccc(Br)cc2/C1=C\c1cc2c([nH]1)CCCC2
Result :: 75.6

Query :: // residual activity lookup, key: COc1ccc(Cl)cc1NC(=O)Nc1cc(C)nc2ccccc12
Result :: 106

Recorded values, source the kinase profiling compilation of Christmann-Franck et al. (2016).
